B1: Intersectin-2, residues 1129 to 1183; numbered along this chain, Q9NZM3 (parent)
chain: VCQVIAMYDYAANNEDELSFSKGQLINVMNKDDPDWWQGEINGVTGLFPSNYVKM

variants of: B1; assay: abundance fitness (aPCA) (normalised: wild type 0, dead -1); higher = more abundant; growth selection in yeast, the domain comes from the species named; conditions: Homo sapiens
Quick reference: abundance fitness of the listed items.
Lab note: write the figure by itself, no unit.

// below: answered variants
INSERT INTO measurements (mutant_code, property_measured, observed_result) VALUES
  ('W37G', 'abundance fitness', -0.826),
  ('M55A', 'abundance fitness', 0.079),
  ('L47T', 'abundance fitness', -0.014),
  ('N42K', 'abundance fitness', -0.093),
  ('G43R', 'abundance fitness', -0.069);

Lab note: Q3F gave abundance fitness of 0.027

Record summary for E40Q : reported abundance fitness = -0.114

The value of abundance fitness measured for the variant P34K turned out to be 0.055

// F48K : abundance fitness value = -1

Looking up L25C , I found its abundance fitness recorded as -0.088

The recorded abundance fitness for entry G43V equals -0.765

Briefly, abundance fitness measured for F20C : -0.596

meta.source: the Human Domainome abundance scans (Beltran et al. 2025)
